Quick reference: inhibition at 0.1 µM of the listed items.
# test-system: FLNA pentapeptide of SEQ ID NO: 1 (Bn-VAKGL) (Homo sapiens, UniProt P21333)
# method: FITC-NLX-based FLNA screening assay (inhibition of FITC-naloxone binding to Bn-VAKGL on streptavidin plates)
# experimental-setup: read-out: Percent Binding Inhibition, FLNA-binding compound 0.1 μM; 10 nM FITC-NLX
assay-metric: inhibition at 0.1 µM

O=C(c1ccc([N+](=O)[O-])cc1)N1CCC2(CC1)OCCN2S(=O)(=O)c1ccc([N+](=O)[O-])cc1 = 37.6%
CC1CCC(C(C)C)C(OCC(O)CN2CCC(=O)C(C)C2)C1 (centres unmarked) = 40.9%
CC1CN(CC(O)COc2ccc(Br)c(F)c2)CC(C)O1 (centres unmarked) = 51.7%
CC(=O)c1ccc(S(=O)(=O)N2CC(CN(C)C)OC23CCN(C)CC3)cc1 (centres unmarked) [Compound C0108M] = 61.4%
COc1c2c(cc3c1C(CC(=O)CCc1ccccc1)[N+](C)(C)CC3)OCO2 (centres unmarked) = 35.3%
O=C1CN(Cc2ccccc2)C2(CCNCC2)N1 [Compound C0115M] = 57.8%
O=S(=O)(c1ccc(F)cc1)N1CCC2(CC1)OCCN2S(=O)(=O)c1ccc(F)cc1 = 43.2%
COc1c2c(cc3c1C(CC(=O)c1ccncc1)[N+](C)(C)CC3)OCO2 (centres unmarked) = 34.8%

----------
# test-system: FLNA pentapeptide of SEQ ID NO: 1 (Bn-VAKGL) (Homo sapiens, UniProt P21333)
# method: FITC-NLX-based FLNA screening assay (inhibition of FITC-naloxone binding to Bn-VAKGL on streptavidin plates)
# experimental-setup: FLNA-binding compound 0.01 μM; 10 nM FITC-NLX
Quick reference: Percent Binding Inhibition of the listed items.
assay-metric: Percent Binding Inhibition

CC1CCC(C(C)C)C(OCC(O)CN2CC(C)OC(C)C2)C1 (stereo not drawn) = 40.4%
COc1ccc(OCC(O)CN2CCc3cc4c(c(OC)c3C2)OCO4)cc1 (stereo not drawn) = 32.9%
CC1CCC(C(C)C)C(OCC(O)CN2CCOc3ccccc32)C1 (stereo not drawn) = 36.7%
COc1ccc(OCC(O)CN2CCc3ccccc32)cc1 (stereo not drawn) = 32.0%
CC1CCC(C(C)C)C(OCC(O)CN2CCc3ccccc32)C1 (stereo not drawn) = 38.7%
COc1ccc(OCC(O)CN2CCCc3ccccc32)cc1 (stereo not drawn) = 32.7%

----------
# System: mu opiate receptor (MOR)
# method: MOR agonist activity using [35S]GTPγS binding assay in striatal membranes
# Format: biochemical
# experimental-setup: 0.1 μM compound
# Experimental: To assess the mu opiate receptor (MOR) agonist activity of positive compounds from the FLNA screening, compounds were tested in a [^35S]GTPγS binding assay using striatal membranes. […] The immunocomplexes so formed were collected by incubation at 25° C. for 30 minutes with 40 μl of agarose-conjugated protein A/G beads and centrifugation at 5,000×g at 4° C. for 5 minutes. […] The radioactivity in the suspension was determined by liquid scintillation spectrometry.
assay-metric: MOR agonist activity ([35S]GTPγS binding), FLNA-Binding Compound as Agonist 0.1 μM (%)

Cc1cccc(OCC(O)CN2CC(C)OC(C)C2)c1 (stereo not drawn) [Compound A0030] = 133.4
CC1CCC(C(C)C)C(OCC(O)CN2CCN(C)CC2)C1 (stereo not drawn) [Compound A0009] = 70.2
CC1CCC(C(C)C)C(OCC(O)CN2CCOCC2)C1 (stereo not drawn) [Compound A0004] = 97.4
CC1CCC(C(C)C)C(OCC(O)CN2CCN(CCN3CCOCC3)CC2)C1 (stereo not drawn) [Compound A0011] = 236.3
COc1ccc(OCC(O)CN2CCc3ccccc3C2)cc1 (stereo not drawn) [Compound A0053] = 78.5
OC(COc1cccc(C(F)(F)F)c1)CN1CCc2ccccc2C1 (stereo not drawn) [Compound A0054] = 74.9
CC1CN(CC(O)COc2cc(F)cc(F)c2)CC(C)O1 (stereo not drawn) [Compound A0046] = 257.5
CC1CCCC(OCC(O)CN2CC(C)OC(C)C2)C1 (stereo not drawn) [Compound A0021] = 133.3
CC1CN(CC(O)COc2cccc(C(F)(F)F)c2)CC(C)O1 (stereo not drawn) [Compound A0051] = 290.4
